experiment: NCI Yeast Anticancer Drug Screen. Data for the mlh1 rad18 strain (AID 175); details: S. cerevisiae mlh1 rad18 strain growth inhibition, stronger effect = higher value; at 50.0 µM unless noted
About 79,000 compounds went through this panel and 15% of them were active in at least one assay; those are over-represented in the sample as a whole. Activity calls are given as the source filed them. No stated cut-off is given here; in the data, active means growth inhibition above about 70%; inactive means the rest.
Hi there, I'd appreciate the recorded growth inhibition for every entry that follows.

{"molecule": "O=C(O)CCC1NC(/C(=C/c2ccccc2O)NC(=O)c2ccccc2)OC1=O (stereo not given)", "growth inhibition": "-16.1% (inactive)"}
{"molecule": "O=C(O)Cc1ccc(-c2cn3c(n2)sc2ccccc23)cc1", "growth inhibition": "16.4% (inactive)"}
{"molecule": "O=C(O)CNC(=O)CNC(=O)CNC(=O)C(CSC(c1ccccc1)(c1ccccc1)c1ccccc1)NC(=O)OCc1ccccc1 (stereo not given)", "growth inhibition": "4.9% (inactive)"}
{"molecule": "CC1=C(N2CCOCC2)C(N2CCOCC2)C(C)C1=O (stereo not given)", "growth inhibition": "3% (inactive)"}

Hi team, please reply with growth inhibition for each item in this list.
1. c1cc2c(cc1C1=NNC(c3ccc4c(c3)OCO4)=NN1)OCO2
2. CC1=Nc2ccccc2C12C(c1ccccc1)C(c1ccccc1)C(=O)N1c3ccccc3CC12 (stereo not given)
3. Cc1ncc(C(N)=S)c(N)n1
4. CCOP(=O)(OCC)C(C)(CC)N/C(=N/C(NC(C)=O)(C(F)(F)F)C(F)(F)F)NC1=NC(C(F)(F)F)(C(F)(F)F)N=C(C(F)(F)F)O1 (stereo not given)
5. O=[n+]1c2c(n([O-])c3ccccc31)CCCCCCCCCC2
6. NC(=O)N/N=C/c1ccc([N+](=O)[O-])cc1

[reply]
1. -3.05% (inactive)
2. -1.65% (inactive)
3. 14.3% (inactive)
4. -34.1% (inactive)
5. 7.9% (inactive)
6. -4.2% (inactive)

###

Hi there, I'd appreciate the recorded growth inhibition for every entry that follows.
experiment: NCI Yeast Anticancer Drug Screen. Data for the cln2 rad14 strain (AID 165);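 further: 0% = growth equal to vehicle treated cultures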; conditions: S. cerevisiae cln2 rad14 strain, stronger effect = higher value; at 50.0 µM unless noted
About 79,000 compounds went through this panel and 15% of them were active in at least one assay; those are over-represented in the sample as a whole.
Answers are plain numbers, in %.

Example entries and their recorded answers appear below.
{"compound": "O=C1C=CC=C/C1=C1/SC(c2ccccc2)=C(O)N1c1ccccc1", "growth inhibition / %": -17.3}
{"compound": "C/C(=N\\NC(N)=O)c1ccc(Br)c2ccccc12", "growth inhibition / %": 4.05}
{"compound": "CN(C)c1ccc(/C=C(\\C#N)C(=O)O)cc1", "growth inhibition / %": 11.7}
{"compound": "COc1ccc2[nH]c3cc4c(=O)c5cc(OC)ccc5[nH]c4cc3c(=O)c2c1", "growth inhibition / %": 5.05}
{"compound": "N#C/C=C\\c1ccc(-c2cc(C(F)(F)F)cc(C(F)(F)F)c2)o1", "growth inhibition / %": 3.65}

Hi team, please reply with growth inhibition for each item in this list.
1. Cc1ccc2nc(-c3ccc(F)cc3)cc(C(=O)O)c2c1
2. O=C(Nc1ccc(S(=O)(=O)NC2CCCCC2)cc1)Oc1ccccc1C(=O)O
3. CCOC(=O)C1=CC(C(=O)OCC)=C2C=CC=C3C=CC=C1N32
4. CCC1(CC)SC=C(C)NC1=O
5. CCCCCOC(=O)C#CC(=O)OCCCCC
6. COC1/C=C/OC2(C)Oc3c(C)c(O)c4c(O)c(c(C5SCCS5)c(O)c4c3C2=O)NC(=O)C(C)=C/C=C\C(C)C(O)C(C)C2OC(C)(C)OC(C1C)C2C (stereo unspecified)

[reply]
17.9
26.1
-1.65
-24.7
99.4
15.6

###

Hi there, I'd appreciate the recorded growth inhibition for every entry that follows.
Assay: NCI Yeast Anticancer Drug Screen. Data for the mlh1 rad18 strain (AID 175)
Conditions: S. cerevisiae mlh1 rad18 strain growth inhibition, stronger effect = higher value; at 50.0 µM unless noted
Experimental: Growth inhibition of yeast strains with defined genetic alterations is measured as a screen for potential anti-cancer activity. Selected strains with alterations in DNA damage repair or cell cycle control were exposed to compounds and growth inhibition was measured relative to vehicle treated controls. The strain used in this assay is mlh1 rad18
About 79,000 compounds went through this panel and 15% of them were active in at least one assay; those are over-represented in the sample as a whole. Where a SMILES comes first, the peptide text is derived from it. The star is where a group is joined. Boc = CC(C)(C)OC(=O)*
Numbers only, in %.

{"compound": "CC(=O)c1cc(Cc2cc(C)cc(C)c2O)c(O)c(Cc2cc(C)cc(C)c2O)c1", "growth inhibition / %": 4.05}
{"compound": "COC(=O)C(Cc1c[nH]c2ccccc12)NC(=O)C(Cc1c[nH]c2ccccc12)NC(=O)C(Cc1c[nH]c2ccccc12)NC(=O)C(Cc1c[nH]c2ccccc12)NC(=O)C(Cc1c[nH]c2ccccc12)NC(=O)C(Cc1c[nH]c2ccccc12)NC(=O)OC(C)(C)C (stereo unspecified) (Boc-WWWWWW-OMe; configuration not given here)", "growth inhibition / %": 16.4}
{"compound": "Cc1ccc2c(ccc3nc(N)nc(N)c32)c1", "growth inhibition / %": -2.65}
{"compound": "CC(=O)c1oc2cc([N+](=O)[O-])c3ccccc3c2c1C", "growth inhibition / %": 40.1}

Hi team, please reply with growth inhibition for each item in this list.
1. CC(C)=CC(=O)CC1(C)CCC(c2ccoc2)O1 (stereo unspecified)
2. O=C(Oc1cc2c(cc1Br)OCO2)c1cccc2ccccc12
3. COC(=O)[C@@H]1O[C@H]1c1ccccn1
4. CC(=NCCCCN=C(C)c1cc(O)cc(Br)c1O)c1cc(O)cc(Br)c1O.[Co]

[reply]
-16
-27.2
0.1
24.4

Hi team, please reply with growth inhibition for each item in this list.
1. CCCCCCCCCC(=O)N=C(C(N)=O)C(N)=O
2. COC1(OC)CC2C(=O)N(Cc3ccccc3)C1CC2S(=O)(=O)c1ccccc1 (stereo unspecified)
3. Clc1ccc(Oc2ncnc3nc[nH]c23)cc1
4. O=C(NCCCCCSC(=O)c1ccccc1)c1ccccc1
5. O=C(CSc1nnc(-c2ccc(N=Cc3ccc(Cl)cc3)cc2)o1)Nc1cccc([N+](=O)[O-])c1

[reply]
1: 21.8; 2: 11.4; 3: 23.5; 4: -4; 5: 2.45

Hi team, please reply with growth inhibition for each item in this list.
1. CCC(SC(CC)(CC)C(=O)O)C(N)=O (stereo unspecified)
2. COc1cccc(C)c1C(=O)O

[reply]
1: -8.1; 2: -5.4

Hi team, please reply with growth inhibition for each item in this list.
1. Clc1ccccc1C1SCc2nc3ccccc3n21 (stereo unspecified)
2. COc1ccc(NC(=S)N/N=C(\C)c2ccccn2)cc1
3. C[C@]12CCC(=O)C=C1CC[C@H]1[C@@H]3CC[C@](O)(C(=O)CO)[C@@]3(C)CC(=O)[C@@]12SC(N)=O
4. COc1ccccc1/C=C1\SC(=S)NC1=O
5. CCCCCCCC[Si](c1ccccc1)(c1ccccc1)c1ccccc1
6. CC(=O)NNc1nc(C)c(C(/C=C/c2ccc(Cl)cc2)=N/NC(=O)C[N+](C)(C)C)s1

[reply]
22.6
84.8
-15.7
-40.1
10.4
-0.25

###

assay: NCI Yeast Anticancer Drug Screen. Data for the rad50 strain (AID 155);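 further: 0% = growth of vehicle-only cultures of the same strain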; details: S. cerevisiae rad50 strain growth inhibition; at 50.0 µM unless noted
Compounds without any hit were thinned out: in the full panel of roughly 79,000, 15% have a hit. Active and inactive are the calls of the source. No stated cut-off is given here; in the data, active means growth inhibition above about 70%; inactive means the rest.
Assign a class; possible classes are yes (1) for active, no (0) for inactive

[ask] What did the test return for CCOC(=O)CN(Cn1cncn1)Cn1cncn1 ?
[reply] no (0)

[ask] What did the test return for N#CCc1nc(-c2cc3ccc(O)cc3oc2=O)cs1 ?
[reply] no (0)

[ask] What did the test return for NC1=CN(CCCO)C2=N/C(=C\c3ccccc3)C(=O)N12 ?
[reply] no (0)

[ask] What did the test return for CCN(CC)C(=O)CCn1cc(F)c(=O)[nH]c1=O ?
[reply] no (0)

[ask] What did the test return for O=C(O)CCNc1ccc(Cl)cc1[N+](=O)[O-] ?
[reply] no (0)

[ask] What did the test return for CCOP(=O)(OCC)/C(=C\n1c(=S)[nH]c2cc(C)ccc21)C(=O)OC ?
[reply] no (0)

[ask] What did the test return for COc1ccc(C2NC3=C(CCCC3)N2)cc1 ?
[reply] no (0)

[ask] What did the test return for O=c1[nH]c(=O)c2[nH]c(Br)nc2[nH]1 ?
[reply] no (0)

###

Hi there, I'd appreciate the recorded growth inhibition for every entry that follows.
assay: NCI Yeast Anticancer Drug Screen. Data for the rad50 strain (AID 155);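 further: 0% = growth of vehicle-only cultures of the same strain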; conditions: S. cerevisiae rad50 strain growth inhibition, stronger effect = higher value; at 50.0 µM unless noted
About 79,000 compounds went through this panel and 15% of them were active in at least one assay; those are over-represented in the sample as a whole.
One number for each entry, in %.

Example entries and their recorded answers appear below.
{"compound": "CN(C)c1c2ccccc2c(NC=O)c2ccccc12", "growth inhibition (%)": 3.45}
{"compound": "CNC(=O)Nc1cccc(C(=O)O)c1", "growth inhibition (%)": -0.3}
{"compound": "CC(=O)N(C(C)=O)c1c(N)n(C)c(=O)[nH]c1=O", "growth inhibition (%)": 12.7}
{"compound": "O=c1[nH][nH]c2ccccc12", "growth inhibition (%)": 23.1}
{"compound": "O=C(O)/C(I)=C(\\I)c1ccccc1", "growth inhibition (%)": -0.55}
{"compound": "COc1ccc(C2=C(Cl)c3cc(OC)c(OC)cc3C2Cl)cc1 (stereo not drawn)", "growth inhibition (%)": 14.8}
{"compound": "Nc1c(Cl)ncnc1Nc1ccc(CCO)cc1", "growth inhibition (%)": -3.6}
{"compound": "CC1(C)C2=CC3(C)N(CN2c2ccccc21)c1ccccc1C3(C)C (stereo not drawn)", "growth inhibition (%)": 17.1}

Hi team, please reply with growth inhibition for each item in this list.
1. CC[N+]1(CC)CC[N+]2(CC1)CC[N+]1(CC[N+](CC)(CC)CC1)CC2
2. C=C1CC(c2ccccc2)(c2cccs2)OC1=O (stereo not drawn)
3. COc1ccccc1NC(=O)Oc1c(C(C)C)cccc1C(C)C
4. Clc1cc(NCc2ccco2)ncn1
5. CCC(C)(C)NC(N)=O

[reply]
1: -16.9; 2: 67.7; 3: -5.35; 4: -21.8; 5: 13.1
